Data provenance: patent US20230158025A1

# TARGET_DESC: recombinant mouse GALK1 (Mus musculus)
# Sequence (Q9R0N0 whole entry): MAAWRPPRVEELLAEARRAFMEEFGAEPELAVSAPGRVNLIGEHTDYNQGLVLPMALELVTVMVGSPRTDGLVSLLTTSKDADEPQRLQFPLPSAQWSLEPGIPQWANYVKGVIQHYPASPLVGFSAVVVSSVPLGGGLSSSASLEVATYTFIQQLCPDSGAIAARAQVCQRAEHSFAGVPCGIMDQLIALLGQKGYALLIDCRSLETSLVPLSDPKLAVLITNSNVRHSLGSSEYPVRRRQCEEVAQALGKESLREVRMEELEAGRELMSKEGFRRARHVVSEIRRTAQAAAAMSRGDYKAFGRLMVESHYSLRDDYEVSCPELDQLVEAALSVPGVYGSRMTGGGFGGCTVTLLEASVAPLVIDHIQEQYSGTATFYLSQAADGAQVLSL
# PROTOCOL: mGALK1 biochemical activity assay (Kinase-Glo Plus, ATP depletion)
# SETUP_CONDITIONS: recombinant mouse GALK1, Kinase-Glo Plus ATP depletion; bracketed figure in the cell, e.g. (−1.2), is not defined in the text shown; read-out: mGALK
ASSAY_METRIC: log10 of IC50 (log10 of the value in µM)
log10 IC50, µM

Bench note: what log10 of IC50 did CC1=C(C(=O)Nc2nncs2)C(c2ccncc2Br)N=C(Nc2nc3ccccc3o2)N1 (stereo not drawn) [Compound 255] show? 1.29

Bench note: what log10 of IC50 did COc1ccc(C2N=C(Nc3nc4ccccc4o3)NC(C)=C2C(=O)Nc2nncs2)c(Cl)c1 (stereo not drawn) [Compound 266] show? 0.74

Bench note: what log10 of IC50 did CC1=C(C(=O)Nc2nncs2)C(c2ccccc2Br)N=C(Nc2nc3ccccc3o2)N1 (stereo not drawn) [Compound 251] show? 0.99

Bench note: what log10 of IC50 did O=C(O)CNC(=O)C1CC(=O)C2=C(C1)NC(Nc1nc3ccccc3o1)=NC2c1ccccc1Cl (stereo not drawn) [Compound 283] show? 0.69

Bench note: what log10 of IC50 did CC1=C(C(=O)Nc2nncs2)C(c2n[nH]cc2Cl)N=C(Nc2nc3ccccc3o2)N1 (stereo not drawn) [Compound 254] show? 1.74

Bench note: what log10 of IC50 did O=C1CC(C(=O)NCCO)CC2=C1C(c1ccccc1Cl)N=C(Nc1nc3ccccc3o1)N2 (stereo not drawn) [Compound 279] show? 0.74

Bench note: what log10 of IC50 did CC1=C(C(=O)Nc2cc(C(=O)O)ccn2)C(c2ccccc2Cl)N=C(Nc2nc3ccccc3o2)N1C (stereo not drawn) [Compound 273] show? 1.54

Bench note: what log10 of IC50 did CC1=C(C(=O)Nc2nncs2)C(c2cccnc2Br)N=C(Nc2nc3ccccc3o2)N1 (stereo not drawn) [Compound 262] show? 1.29

Bench note: what log10 of IC50 did CC(C)C1=C(C(=O)Nc2nncs2)C(c2ccccc2Cl)N=C(Nc2nc3ccccc3o2)N1 (stereo not drawn) [Compound 250] show? 1.18
